- Tested on: AsPC-1 cells
- test: AsPC-1 cell proliferation assay (CellTiter Glo)
- Format: cell-based
- runParameters: Homo sapiens, ASPC1, 144 h, 6 days
Would you mind telling me the reported IC50 of each entry?

Quick one: IC50 for CCn1nccc1-c1ccc(CNC(=O)[C@@H]2C[C@@H](O)CN2C(=O)[C@H](C(C)C)n2cc(-c3ccc(COc4c(-c5c(C)c(F)cc6[nH]ncc56)c(C5CC5)cc5c(N6C[C@@H]7C[C@H]6CN7)nc(OC[C@H](C)OC)nc45)cc3)nn2)c2c1CC2 ?
10 to 100 nM

Quick one: IC50 for CO[C@@H](C)COc1nc(N(C)[C@H]2CCNC2)c2cc(C3CCC3)c(-c3c(C)c(F)cc4[nH]ncc34)c(OCc3ccc(-c4cn([C@H](C(=O)N5C[C@H](O)C[C@H]5C(=O)N[C@H](c5ccc(-c6scnc6C)cc5)C(C)O)C(C)C)nn4)cc3)c2n1 (stereo in doubt) ?
< 10 nM

Quick one: IC50 for CCn1nccc1-c1ccc([C@@H](NC(=O)[C@@H]2C[C@@H](O)CN2C(=O)[C@H](C(C)C)n2cc(-c3ccc(COc4c(-c5c(C)c(F)cc6[nH]ncc56)c(C5CCC5)cc5c(N6C[C@@H]7C[C@H]6CN7)nc(OC[C@H](C)OC)nc45)cc3)nn2)[C@@H](C)O)cc1 ?
< 10 nM

Quick one: IC50 for CCn1nccc1-c1ccc([C@H](CO)NC(=O)[C@@H]2C[C@@H](O)CN2C(=O)[C@H](C(C)C)n2cc(-c3ccc(COc4c(-c5c(C)c(F)cc6[nH]ncc56)c(C5CC5)cc5c(N6C[C@@H]7C[C@H]6CN7)nc(OC[C@H](C)OC)nc45)c4c3CC4)nn2)cc1 ?
< 10 nM

Quick one: IC50 for COC1CCC(Oc2nc(N3C[C@@H]4C[C@H]3CN4)c3cc(C4CC4)c(-c4c(C)c(F)c(F)c5[nH]ncc45)c(OCc4ccc(-c5cn([C@H](C(=O)N6C[C@H](O)C[C@H]6C(=O)N[C@@H](CO)c6ccc(-c7scnc7C)cc6)C(C)C)nn5)cc4)c3n2)CC1 (stereo partly shown) ?
< 10 nM

Quick one: IC50 for CCn1nccc1-c1ccc([C@H](CO)NC(=O)[C@@H]2C[C@@H](O)CN2C(=O)[C@H](C(C)C)n2cc(-c3ccc(COc4c(-c5c(C)c(F)cc6[nH]ncc56)c(C5CC5)cc5c(N6C[C@@H]7C[C@H]6CN7)nc(O[C@H]6CO[C@H]7OCC[C@H]76)nc45)cc3)nn2)cc1 ?
< 10 nM

Quick one: IC50 for CO[C@@H](C)COc1nc(N2C[C@H]3C[C@@H]2CN3)c2cc(C3CC3)c(-c3c(C)c(F)cc4n[nH]cc34)c(OCc3ccc(-c4cn([C@H](C(=O)N5C[C@H](O)C[C@H]5C(=O)N[C@@H](CO)c5ccc(-c6c(C)noc6C)cc5)C(C)C)nn4)cc3)c2n1 (single isomer, unassigned) ?
10 to 100 nM
